Cited source: ChEMBL document CHEMBL3580594

Assay: Cytotoxicity against human HepG2.2.15 cells by MTT assay
Format: cell-based, HepG2 2.2.15
experimental.readout: CC50

CC(C)Nc1ccn([C@@H]2O[C@@](CO)(N=[N+]=[N-])[C@@H](O)[C@@H]2F)c(=O)n1    > 125 µM

Give CC50 for each listed item.
1. [N-]=[N+]=N[C@]1(CO)O[C@@H](n2ccc(=O)[nH]c2=O)[C@@H](F)[C@@H]1O
2. CCN(CC)c1ccn([C@@H]2O[C@@](CO)(N=[N+]=[N-])[C@@H](O)[C@@H]2F)c(=O)n1
3. CCC(C)Nc1ccn([C@@H]2O[C@@](CO)(N=[N+]=[N-])[C@@H](O)[C@@H]2F)c(=O)n1 (some centres not stated)
4. CN(C)c1ccn([C@@H]2O[C@@](CO)(N=[N+]=[N-])[C@@H](O)[C@@H]2F)c(=O)n1
5. CNc1ccn([C@@H]2O[C@@](CO)(N=[N+]=[N-])[C@@H](O)[C@@H]2F)c(=O)n1
6. [N-]=[N+]=N[C@]1(CO)O[C@@H](n2ccc(N3CCCC3)nc2=O)[C@@H](F)[C@@H]1O
7. [N-]=[N+]=N[C@]1(CO)O[C@@H](n2ccc(NC3CCCCC3)nc2=O)[C@@H](F)[C@@H]1O
8. CCNc1ccn([C@@H]2O[C@@](CO)(N=[N+]=[N-])[C@@H](O)[C@@H]2F)c(=O)n1

Key:
["> 125 µM", "> 125 µM", "> 125 µM", "> 125 µM", "> 125 µM", "> 125 µM", "> 125 µM", "> 125 µM"]

###

Assay: Cytotoxicity against human HepG2.2.15 cells by MTT assay
Format: cell-based, HepG2 2.2.15
experimental.readout: CC50 (µM)
Give bare numbers, in µM.

Required: CC50, one value per compound below.
1. C=C1[C@H](CO)[C@@H](O)C[C@@H]1n1cnc2c(=O)[nH]c(N)nc21
2. [N-]=[N+]=N[C@]1(CO)O[C@@H](n2ccc(NC3CC3)nc2=O)[C@@H](F)[C@@H]1O

Key:
1. 30
2. 391
